- Test system: RD
- assay.name: Cytotoxicity against human RD cells
- Type: cell-based
Exercise: for every item that follows, state its recorded CC50.
Give just the numeric value; µM need not be written.

Query (compound): O=C[C@H](C[C@@H]1CCNC1=O)NC(=O)[C@H](Cc1ccccc1)NC(=O)/C=C/c1ccc(Cl)cc1F ; field requested: CC50
5.1

Field entry: O=C[C@H](C[C@@H]1CCNC1=O)NC(=O)[C@H](Cc1ccccc1)NC(=O)OCc1ccccc1
23.6

====

- Tested on: Echovirus E9
- assay.name: Antiviral activity against Human echovirus 9
- Format: functional, organism-based
- assay.context: Enterovirus B
reported.metric: EC50 (nM)
Express it in nM; write the number only.

Request body: readout EC50, system Echovirus E9, query CCOC(=O)/C=C/[C@H](C[C@@H]1CCNC1=O)NC(=O)[C@@H](CC(=O)[C@@H](NC(=O)c1cc(C)on1)C(C)C)Cc1ccc(F)cc1 . Return the value.
15

====

- Tested on: RD
- assay.name: Cytotoxicity against human RD cells
- Format: cell-based
reported.metric: CC50

Recall the recorded CC50 for CN(C)c1ccc(/C=C/C(=O)N[C@@H](Cc2ccccc2)C(=O)N[C@H](C=O)C[C@@H]2CCNC2=O)cc1 with RD and state it.
> 25 µM

What do you get for CCOC(=O)/C=C/[C@H](C[C@@H]1CCNC1=O)NC(=O)[C@H](Cc1ccccc1)NC(=O)/C=C/c1ccccc1 ?
8 µM

Entry O=C[C@H](C[C@@H]1CCNC1=O)NC(=O)[C@H](Cc1ccccc1)NC(=O)/C=C/c1ccccc1 please
> 25 µM

Now consider Cc1cc(/C=C/C(=O)N[C@@H](Cc2ccccc2)C(=O)N[C@H](C=O)C[C@@H]2CCNC2=O)no1 and answer again.
> 25 µM

Note, next up: Cc1ccc(/C=C/C(=O)N[C@@H](Cc2ccccc2)C(=O)N[C@H](C=O)C[C@@H]2CCNC2=O)cc1
> 25 µM

Also CCOC(=O)/C=C/[C@H](C[C@@H]1CCNC1=O)NC(=O)[C@H](Cc1ccccc1)NC(=O)/C=C/c1ccc(N(C)C)cc1 , if possible.
21.4 µM

Consider next the compound O=C[C@H](C[C@@H]1CCNC1=O)NC(=O)[C@H](Cc1ccccc1)NC(=O)/C=C/c1ccc2c(c1)OCO2 in the same way.
> 25 µM
